- Test system: K-562 (Chronic Myelogenous Leukemia);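 further: after 72 h of two-drug dosing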
- Run description: Bliss excess, mean over the matrix (fraction); higher = more synergy
Provide the recorded Bliss excess for the entries that follow.
Form rule: numeric answer, no unit written next to it.

compound COc1cccc(OCCCN)c1-c1cc(Nc2cnc(C#N)cn2)n[nH]1 [Prexasertib] + CN(C)CCCOc1ccc(-c2ccc3ncc4c(c3c2)n(C2CCOCC2)c(=O)n4C)cn1 [AZD0156] (first compound max 1 µM, 7x7, partner max 1 µM) , Bliss excess observed: -0.0217

compound COc1cccc(OCCCN)c1-c1cc(Nc2cnc(C#N)cn2)n[nH]1 [Prexasertib] + O=C(c1cc(Cc2n[nH]c(=O)c3ccccc23)ccc1F)N1CCN(C(=O)C2CC2)CC1 [Olaparib] (first compound max 1 µM, 7x7, partner max 10 µM) , Bliss excess observed: -0.105

compound C[C@@H](c1ccc2nccn2c1)n1nnc2ncc(-c3cnn(C)c3)nc21 [Savolitinib] + Cc1c2c(nn1C)CSCc1cc(n(C)n1)CSc1cc(c3ccccc3c1)OCCCc1c(C(=O)O)n(C)c3c-2c(Cl)ccc13 [AZD5991] (first compound max 1 µM, 7x7, partner max 1 µM) , Bliss excess observed: 0.0145

compound C[C@@H](c1ccc2nccn2c1)n1nnc2ncc(-c3cnn(C)c3)nc21 [Savolitinib] + CC1(C)CCC(CN2CCN(c3ccc(C(=O)NS(=O)(=O)c4ccc(NCC5CCOCC5)c([N+](=O)[O-])c4)c(Oc4cnc5[nH]ccc5c4)c3)CC2)=C(c2ccc(Cl)cc2)C1 [Venetoclax] (first compound max 1 µM, 7x7, partner max 1 µM) , Bliss excess observed: -0.0187
